- Test system: OVCAR-3 ovarian
- experiment description: NCI tumour cell line growth inhibition, 48 h
The following compounds are listed with their measured TGI values.
Field: numeric (µM). Do not append units.

Q. Recall and state the measured TGI for Oc1ccc(Cl)cc1Cc1cc(Cl)cc(Cc2cc(Cl)ccc2O)c1O .
A. 11

---

TGI values, listed per item
- Tested on: SF-268 CNS
- experiment description: NCI tumour cell line growth inhibition, 48 h
Give just the numeric value; µM need not be written.

CC(=O)OC[C@@]12CC[C@H]3C(C)(C)CCC[C@]3(C)[C@H]1C[C@@H](C1=CC(=O)O[C@H]1O)O2 = 28.1

Continue with the molecule presented below.
Q. Tell me TGI reported for O=S1c2ccccc2N=C(c2ccc3ccccc3c2)CC1c1ccccc1 (centres undefined)
A. 37.2

---

- System: BT-549 breast
- experiment description: NCI tumour cell line growth inhibition, 48 h
parameter: TGI

Known results for molecules:
O=Cc1ncc(-c2ccc(C(F)(F)F)cc2)c(NC2CCCCCC2)n1 = > 10 µM
Fc1cc(C2=C[C@H](c3ccc4c(c3)OCO4)NC(=S)N2)c(Cl)cc1Cl = > 100 µM
NC(=S)SC1=NNC2(C(=O)N1)c1ccccc1-c1ccccc12 = > 10 µM
C[C@@]12CCC[C@@](C)(C(=O)O)C1CC[C@]13C=C(CO)[C@](O)(CCC12)C3 (stereo not given in full) = > 100 µM
Nc1ccc(-c2nc3cc(F)ccc3s2)cc1Br = > 74.1 µM
N#CC(NC12CC3CC(CC(C3)C1)C2)c1ccccc1 (stereo not given) = > 100 µM
Cc1cc(NC(=O)NC(=O)c2ccccc2[N+](=O)[O-])ccc1Oc1ncc(Cl)cn1 = 91.5 µM
O=C(/C=C\c1cccc([N+](=O)[O-])c1)c1ccccc1 = 12.1 µM
COC(=O)C1=C(C(=O)Nc2cccnc2)C2OC1(C(Cc1ccccc1)Oc1ccccc1)C1OC21 (stereo not given) = 12.8 µM

Now consider the entry below.
Q. For the molecule CCOC(=O)CC/C(C)=N\n1c(Cc2ccc(Cl)cc2)n[nH]c1=O , give its reported TGI.
A. > 100 µM

---

Measured TGI values are reported for all entries that follow.
- Tested on: NCI-H460 lung
- experiment description: NCI tumour cell line growth inhibition, 48 h

# count of solved cases: 3
OCC1OC(n2ccc3cnccc32)CC1O (stereo not given) = > 100 µM
CC12Oc3ccc4ccccc4c3C1c1c(ccc3ccccc13)O2 (stereo not given) = > 100 µM
NC(=O)c1ncn(C2OC(CO)C(O)C2O)n1 (stereo not given) = > 100 µM

Q. Report measured TGI on NCI-H460 lung; entry: COc1cc(/C=C2\N=C(c3ccccc3)N(c3nc4c(Cl)cc(Cl)cc4s3)C2=O)ccc1O
A. > 100 µM

Q. Provide TGI, tested on NCI-H460 lung, for O=C1CCCCC1C1(O)C(=O)Nc2cc(F)ccc21 (stereo not given) .
A. > 100 µM

Q. Output reported TGI of the molecule O=S1c2ccccc2N=C(c2ccc3ccccc3c2)CC1c1ccccc1 (stereo not given) on NCI-H460 lung.
A. 41 µM

Q. Name the value of TGI reported for CC(C)=CCC/C(C)=C/CC/C(C)=C/[C@@H]1[C@@H](CO)[C@]1(C)CC/C=C(\C)CCC=C(C)C when tested on NCI-H460 lung.
A. > 100 µM

Q. Print NCI-H460 lung TGI for COc1ccc(-c2cn3c(nc4ccccc43)c(C)n2)cc1 .
A. > 100 µM

Q. Specify TGI for CC(C)CC(=O)N1CCN(C(=O)CC(C)C)c2ccccc21 , system NCI-H460 lung.
A. > 100 µM

Q. # return TGI of NC(=S)SC1=NNC2(C(=O)N1)c1ccccc1-c1ccccc12 (system: NCI-H460 lung)
A. > 10 µM

Q. Provide TGI, recorded with NCI-H460 lung, of Cn1nc(-c2ccccc2)c(C(=O)/C=C/c2ccccc2)c(N2CCCCC2)c1=O
A. > 100 µM

Q. Recall the reported TGI of O=C(O)c1ccc([N+](=O)[O-])c(P(=O)(O)O)c1 on NCI-H460 lung and write it down.
A. > 100 µM

Q. Fill in: TGI on NCI-H460 lung, entry CN(C)C/C=C(/c1ccc(Br)cc1)c1cccnc1
A. > 100 µM

Q. For NCI-H460 lung, give the measured TGI of the entry CC(=O)c1cc2c3c(c1)c1cc4c(cc1c(=O)n3CC2)OCO4
A. 49.7 µM

Q. Param request: TGI | system NCI-H460 lung | item NC(=O)Cc1ccccc1Oc1nccc(-c2c(-c3ccc(F)cc3)ncn2C2CCNCC2)n1
A. > 25 µM

Q. State TGI on NCI-H460 lung. Entry: Cc1nc(NC(=O)COc2cccc(/C=C3\COc4ccccc4C3=O)c2)sc1C
A. 11.3 µM

Q. # assay system NCI-H460 lung: give TGI of C/C(=N/NC(=S)N1CCCCCC1)c1ccccc1O
A. 25.2 µM

Q. Output reported TGI of the molecule Nc1cccc(-c2nc3sccn3c2-c2ccnc(NCCCNS(=O)(=O)c3ccc(C(F)(F)F)cc3)n2)c1 on NCI-H460 lung.
A. 58.6 µM

Q. # lookup: NCI-H460 lung TGI, key = COc1ccc(C2=C(Br)C(=O)OC2)cc1Cl
A. > 100 µM

Q. Look up and report measured TGI (NCI-H460 lung) for the following molecule: N#Cc1ccc(Nc2cnc3cc(N)ccc3n2)cc1
A. > 100 µM

---

- Test system: CCRF-CEM leukemia
- experiment description: NCI tumour cell line growth inhibition, 48 h
parameter: TGI (µM)
// note: answer is a bare numeric in µM

Reference set, count: 3
CC(C)Cc1ccc(C(C)/C=C2\CCC(CN3CCOCC3)C2=O)cc1 (stereo not given) = 17.8
CC(Br)C(=O)c1ccc2cc(Br)c3ccccc3c2c1 (stereo not given) = 14.6
C#CCn1c(=O)c(C)cn(/C(=C/C(=O)OCC)C(=O)OCC)c1=O = 13.5

Moving on to another molecule below.
Q. Could you please provide reported TGI for COC(=O)C1=C(C(=O)Nc2cccnc2)C2OC1(C(Cc1ccccc1)Oc1ccccc1)C1OC21 (stereo not given) ? Thanks!
A. 2.14

---

- System: HOP-62 NSCLC
- experiment description: NCI tumour cell line growth inhibition, 48 h
parameter: TGI

# example entries with known answers
N#CC(NC12CC3CC(CC(C3)C1)C2)c1ccccc1 (stereo unspecified) = > 100 µM
Cc1cc(O)c2c(c1O)C(=O)c1c(O)ccc(O)c1C2=O = > 100 µM
CC(/C=C/C=C/C=C/C=C/C=C/C(O)=C1/C(=O)C(CCC(=O)O)N(C)C1=O)=C\C(C)C(OC1CC(O)C(O)C(C)O1)C(C)C (stereo unspecified) = 3.68 µM

Q. Recall and state the measured TGI for CCN(CC)CC(O)CNc1ccc(NCC(O)CCl)c2c1C(=O)c1ccccc1C2=O (stereo unspecified) .
A. 25.6 µM

Q. Look up TGI of CCOC(=O)c1c(Nc2ccccc2)sc2cccnc12 and report it.
A. > 81 µM

Q. Provide TGI value for the following molecule: CNC(=S)NNC1=NCCCN1
A. > 100 µM

Q. Let me know recorded TGI for NC1=NN(c2ccccc2)C(=O)C1C(=O)C(=O)NC1C2CC3CC(C2)CC1C3 (stereo unspecified) , thanks.
A. > 100 µM

Q. Answer with reported TGI of O=C(O)c1cnccc1-c1cc(=O)[nH]n1-c1ccccc1
A. > 100 µM

---

- Test system: DU-145 prostate
- experiment description: NCI tumour cell line growth inhibition, 48 h; in the data active = GI50 below about 0.43 µM; inactive = the rest
Please answer using one outcome listed in label 1 = active, label 0 = inactive

O=C(Nc1cccc(-n2cc(-c3ccncc3)c(-c3cc(O)cc(Cl)c3)n2)c1)Nc1ccc(Cl)c(Cl)c1 = label 0
Nc1ccccc1C#Cc1ccccc1C#Cc1ccccc1N = label 0
O=C1OCC2=C1C(c1cccc([N+](=O)[O-])c1)c1cc3c(cc1N2CCO)CCC3 (stereo not given) = label 1

Q. Hey, what did the test say about CC(C)[C@@H]1NC(=O)[C@]2(C)CSC(=N2)c2csc(n2)CNC(=O)C[C@@H](/C=C/CCS)OC1=O ?
A. label 1

Q. For CCCCC(SC(=S)N(CC)CC)C(=O)Nc1nc(CC(=O)OCC)cs1 (stereo not given) , which call appears in the assay record?
A. label 0

Q. Hi, sorry to bother you, what did the test record for O=C(/C=C/c1ccccc1O)c1ccccc1 ?
A. label 0

Q. Give the logged outcome of this assay for the following compound: COc1cc2c3c(n(CCCN=[N+]=[N-])c(=O)c2cc1OC)-c1ccc(N)cc1C3=O
A. label 1

Q. Outcome logged for C[C@@]12CCC[C@@](C)(C(=O)O)C1CC[C@]13C=C(CO)[C@](O)(CCC12)C3 (stereo not given in full) in this assay:
A. label 0

Q. GET /call?item= Cc1oncc1C(=O)Nc1ccc(C(F)(F)F)cc1 returns the recorded outcome of this test.
A. label 0

Q. Field: outcome | Entry: COc1cccc(C2=NN(C(C)=O)C(c3cc(OC)c(OC)c(OC)c3)C2)c1 (stereo not given)
A. label 0

Q. Status in this test for COc1ccc(C2=C(Br)C(=O)OC2)cc1Cl ?
A. label 0

Q. // return assay outcome for C[C@H]1O[C@@H](O[C@H]2[C@@H](O)C[C@H](O[C@H]3[C@@H](O)C[C@H](O[C@H]4CC[C@]5(C)C6C[C@@H](O)[C@]7(C)[C@@H](C8=CC(=O)OC8)CC[C@]7(O)C6CC[C@@H]5C4)O[C@@H]3C)O[C@@H]2C)C[C@H](O)[C@@H]1O (stereo not given in full)
A. label 1

Q. Recorded test outcome, item O=C1OCC2=C1C(c1ccccc1)c1cc3c(cc1N2CCO)CCC3 (stereo not given)
A. label 1

Q. Hello, I am checking results. What call was entered for O=C(/C=C\c1cccc([N+](=O)[O-])c1)c1ccccc1 ?
A. label 0

Q. What outcome does the record of this test show for CCOc1ccc(/C=N/Nc2cc(C)nc3ccc(Cl)cc23)cc1 ?
A. label 0

Q. Please share the test call associated with NC(=O)Cc1ccccc1Oc1nccc(-c2c(-c3ccc(F)cc3)ncn2C2CCNCC2)n1 .
A. label 0

Q. Hello, I am checking results. What call was entered for NCC(=O)Nc1ccc(-n2nc(C(F)(F)F)cc2-c2ccc3c(ccc4ccccc43)c2)cc1 ?
A. label 0

Q. Outcome? Cc1cc(N2CCOCC2)nc(N(CCNc2ccnc3cc(Cl)ccc23)Cc2ccco2)n1
A. label 0

Q. Given Nc1cccc(-c2nc3sccn3c2-c2ccnc(NCCCNS(=O)(=O)c3ccc(C(F)(F)F)cc3)n2)c1 , state the outcome it received in this test.
A. label 0

Q. Test call, this compound: Nc1nn(C(=O)Nc2ccc(Cc3ccccc3)cc2)c2ccc(Cl)cc12
A. label 0
